- SYSTEM UNDER TEST: mOct2 (Mus musculus)
- ASSAY NAME: Inhibition of mOct2-mediated 14C-metformin uptake in transfected HEK293 cells
- Format: cell-based
- Design: expressed in transfected cells; host or cells: HEK293 (stably transfected)
- CONDITION INFO: HEK293, read-out: Inhibitory Effects (%) mOct2 100 µM Mean
Provide the recorded inhibition at 100 µM for the entries that follow.
Answer format: numeric, % implied, no suffix.

Request: What value of inhibition at 100 µM has been reported for the following molecule? "O=C(O)CNCP(=O)(O)O"
Response: -31

Request: What value of inhibition at 100 µM has been reported for the following molecule? "C[n+]1ccc(-c2cc[n+](C)cc2)cc1"
Response: -48

Request: What value of inhibition at 100 µM has been reported for the following molecule? "CCCN(CCOc1c(Cl)cc(Cl)cc1Cl)C(=O)n1ccnc1"
Response: 10

Request: What value of inhibition at 100 µM has been reported for the following molecule? "O=[N+]([O-])NC1=NCCN1Cc1ccc(Cl)nc1"
Response: -29

Request: What value of inhibition at 100 µM has been reported for the following molecule? "CCNc1nc(Cl)nc(NC(C)C)n1"
Response: -27

Request: What value of inhibition at 100 µM has been reported for the following molecule? C=CCOC(Cn1ccnc1)c1ccc(Cl)cc1Cl (centres unmarked)
Response: 97

Request: What value of inhibition at 100 µM has been reported for the following molecule? COc1ccc(CCN(C)CCCC(C#N)(c2ccc(OC)c(OC)c2)C(C)C)cc1OC (centres unmarked)
Response: 73

Request: What value of inhibition at 100 µM has been reported for the following molecule? "Cc1ccc(/N=C/N(C)/C=N/c2ccc(C)cc2C)c(C)c1"
Response: -12

###

- SYSTEM UNDER TEST: mOct2 (Mus musculus, UniProt O70577)
- Sequence (O70577 whole entry): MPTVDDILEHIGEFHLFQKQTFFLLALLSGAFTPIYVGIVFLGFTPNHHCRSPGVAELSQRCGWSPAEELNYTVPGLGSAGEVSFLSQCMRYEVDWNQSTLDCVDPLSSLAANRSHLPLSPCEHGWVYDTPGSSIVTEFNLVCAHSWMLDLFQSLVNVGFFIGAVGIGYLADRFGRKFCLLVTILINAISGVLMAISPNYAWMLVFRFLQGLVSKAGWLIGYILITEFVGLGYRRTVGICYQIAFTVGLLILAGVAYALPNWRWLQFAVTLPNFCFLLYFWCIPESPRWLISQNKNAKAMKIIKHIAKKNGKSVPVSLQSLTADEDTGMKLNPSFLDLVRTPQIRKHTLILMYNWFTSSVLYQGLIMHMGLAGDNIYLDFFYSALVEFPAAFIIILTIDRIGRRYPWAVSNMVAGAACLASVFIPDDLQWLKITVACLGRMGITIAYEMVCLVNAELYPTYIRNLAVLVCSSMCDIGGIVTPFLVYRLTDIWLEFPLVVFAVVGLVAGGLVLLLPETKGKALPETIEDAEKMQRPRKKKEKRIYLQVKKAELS
- ASSAY NAME: Inhibition of mOct2-mediated 3H-MPP uptake in transfected HEK293 cells
- Format: cell-based
- Set-up: expressed in transfected cells; host or cells: HEK293 (stably transfected)
QUANTITY: IC50 (µM)
Answer format: numeric, µM implied, no suffix.

Request: What value of IC50 has been reported for the following compound? C=CCOC(Cn1ccnc1)c1ccc(Cl)cc1Cl (stereo not shown)
Response: 23

###

- SYSTEM UNDER TEST: mOct2 (Mus musculus, UniProt O70577)
- ASSAY NAME: Inhibition of mOct2-mediated 14C-metformin uptake in transfected HEK293 cells
- Type: cell-based
- Set-up: expressed in transfected cells; host or cells: HEK293 (stably transfected)
- CONDITION INFO: HEK293, 100 µM test compound; 1 µM [14C]metformin, 2 min, HEK293; negative = stimulation; read-out: Inhibitory Effects (%) mOct2 100 µM Mean
- Method: The uptake assays were performed as previously described in 24-well plates. […] After incubation, the uptake was stopped by aspirating the reaction mixture and washing the cells three times with 0.4 mL ice-cold PBS buffer. Cells were then solubilized with 0.6 mL of 1 N NaOH, overnight. The whole content of each well (0.6 mL) was transferred to a scintillation vial (Perkin Elmer). The radio-labelled amount was determined by liquid scintillation counting. […]
Provide the recorded inhibition at 100 µM for the entries that follow.
Answer format: numeric, % implied, no suffix.

Request: What value of inhibition at 100 µM has been reported for the following molecule? CN/C(=N/CCSCc1nc[nH]c1C)NC#N [Cimetidine]
Response: 24

Request: What value of inhibition at 100 µM has been reported for the following molecule? C=C[C@H]1C[N@@]2CC[C@H]1C[C@@H]2[C@@H](O)c1ccnc2ccc(OC)cc12 [Quinidine]
Response: -28

Request: What value of inhibition at 100 µM has been reported for the following molecule? CCCCc1oc2ccccc2c1C(=O)c1cc(I)c(OCCN(CC)CC)c(I)c1 [Amiodarone]
Response: 4

Request: What value of inhibition at 100 µM has been reported for the following molecule? CCN(CC)CCNC(=O)c1ccc(N)cc1 [Procainamid]
Response: -30

Request: What value of inhibition at 100 µM has been reported for the following molecule? O[C@@H](COc1cccc2ncccc12)CN1CCN([C@@H]2c3ccccc3[C@@H]3[C@H](c4ccccc42)C3(F)F)CC1 [Zosuquidar]
Response: -30

Request: What value of inhibition at 100 µM has been reported for the following molecule? Clc1cccc(Cl)c1N=C1NCCN1 [Clonidine]
Response: 89
